Sourced from BigSolDB 2.1

- assay-setup: in n-butyl acetate, 313.15 K
property-measured: solubility (mole fraction)
Reply: number alone, nothing else.

// query Item Cc1ccc2c(c1)C(=O)OC2=O has what recorded solubility (mole fraction)?
// result 0.0858

----------
- assay-setup: in acetonitrile, 313.15 K
property-measured: solubility (mole fraction)
Could you keep your reply to the number by itself?

// query Report solubility (mole fraction) for Cc1ccc2c(c1)C(=O)OC2=O please.
// result 0.3

----------
- assay-setup: in tetrachloromethane, 278.15 K
property-measured: solubility (mole fraction)

// query I would be grateful if you could share the reported solubility (mole fraction) for Cc1ccc2c(c1)C(=O)OC2=O .
// result 0.00751

----------
- assay-setup: in cyclohexane, 288.15 K
property-measured: solubility (mole fraction)
The answer should be a number; do not append a unit.

// query Returns the measured solubility (mole fraction) for the input compound. Input: Cc1ccc2c(c1)C(=O)OC2=O
// result 0.0019

----------
- assay-setup: in acetonitrile, 288.15 K
property-measured: solubility (mole fraction)
API note: the answer field is a bare number with no unit suffix.

// query Quick one: solubility (mole fraction) for Cc1ccc2c(c1)C(=O)OC2=O ?
// result 0.141

----------
- assay-setup: in n-butyl acetate, 283.15 K
property-measured: solubility (mole fraction)
Simply state the number, no unit and no words.

// query Entry Cc1ccc2c(c1)C(=O)OC2=O has what solubility (mole fraction)?
// result 0.0267
